Assay Target: pooled human IgG
Measured Quantity: Enzyme Activity Endpoint Assay (purified): Fc (ng/µL)

| Protein | Value Observed |
| --- | --- |
| PRT-69 (protein) MANQEIRYSEVTPYHVTSVWTKGVTPPANFTQGEDVFHAPYVANQGWYDITKTFNGKDDLLCGAATAGNMLHWWFDQNKDQIKRYLEEHPEKQKINFNGEQMFDVKEAIDTKNDQLDSKLFEYFKEKAFPYLSTKHLGVFPDHVIDMFINGYRLSLTNHGPTPVKEGSKDPRGGIFDAVFTRGDQSKLLTSRHDFKEKNLKEISDLIKKELTEGKALGLSHTYANVRINHVINLWGADFDSNGNLKAIYVTDSDSNASIGMKKYFVGVNSAGKVAISAKEIKEDNIGAQVLGLFTLSTGQDSWNQTN | 121 |
